What melting point was measured for each of the following?

[ask] // query melting point value for entry O=C(Nc1ccc(S(=O)(=O)Nc2nccs2)cc1)c1nn(-c2ccccc2)c(-c2ccccc2)c1C(=O)c1ccccc1 [Compound 6h]
[reply] 252 to 254 °C

[ask] // query melting point value for entry O=C(Nc1ccc(S(=O)(=O)Nc2ncccn2)cc1)c1nn(-c2ccccc2)c(-c2ccccc2)c1C(=O)c1ccccc1 [Compound 6e]
[reply] 244 to 246 °C

[ask] // query melting point value for entry NS(=O)(=O)c1ccccc1NC(=O)c1nn(-c2ccccc2)c(-c2ccccc2)c1C(=O)c1ccccc1 [Compound 6c]
[reply] 233 to 235 °C

[ask] // query melting point value for entry O=C(Nc1ccc(S(=O)(=O)Nc2ccccn2)cc1)c1nn(-c2ccccc2)c(-c2ccccc2)c1C(=O)c1ccccc1 [Compound 6d]
[reply] 239 to 241 °C
